B1: KLHL12 (parent)
chain: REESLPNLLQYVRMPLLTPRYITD

# Variants of: B1
# experiment summary: protein stability index of a GFP-peptide fusion (GPS, HEK-293T) (PSI 1-6); higher = more stable;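 also: lentivirally expressed fusions sorted by FACS into six bins by GFP to DsRed ratio, PSI derived from sequencing read proportions per bin multiplied by bin number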
# stated conditions: c terminus: a fixed tail appended
Label Condition not met if protein stability index falls below 3; label Condition met in every other case.

Recorded results for 3 variants are shown here.
mutant_name=M14E label="Condition met"
mutant_name=L5C label="Condition not met"
mutant_name=E3A label="Condition not met"

Query block: Does protein stability index meet or surpass 3 for `Y11D` ?
Result block: Condition met

Query block: Does protein stability index meet or surpass 3 for `R20M` ?
Result block: Condition not met

Query block: Does protein stability index meet or surpass 3 for `Y11W` ?
Result block: Condition not met

Source: the supplement of paper PMC10567573
